Molecular target: β-catenin/BCL9 PPI (Homo sapiens)
Construct: Wild-type full-length β-catenin were cloned into a pET-28b vector carrying a C-terminal 6×histidine; made in house; host or cells: Escherichia coli BL21 DE3 (β-catenin); BCL9 peptide chemically synthesized
Sequence (P35222 1-781): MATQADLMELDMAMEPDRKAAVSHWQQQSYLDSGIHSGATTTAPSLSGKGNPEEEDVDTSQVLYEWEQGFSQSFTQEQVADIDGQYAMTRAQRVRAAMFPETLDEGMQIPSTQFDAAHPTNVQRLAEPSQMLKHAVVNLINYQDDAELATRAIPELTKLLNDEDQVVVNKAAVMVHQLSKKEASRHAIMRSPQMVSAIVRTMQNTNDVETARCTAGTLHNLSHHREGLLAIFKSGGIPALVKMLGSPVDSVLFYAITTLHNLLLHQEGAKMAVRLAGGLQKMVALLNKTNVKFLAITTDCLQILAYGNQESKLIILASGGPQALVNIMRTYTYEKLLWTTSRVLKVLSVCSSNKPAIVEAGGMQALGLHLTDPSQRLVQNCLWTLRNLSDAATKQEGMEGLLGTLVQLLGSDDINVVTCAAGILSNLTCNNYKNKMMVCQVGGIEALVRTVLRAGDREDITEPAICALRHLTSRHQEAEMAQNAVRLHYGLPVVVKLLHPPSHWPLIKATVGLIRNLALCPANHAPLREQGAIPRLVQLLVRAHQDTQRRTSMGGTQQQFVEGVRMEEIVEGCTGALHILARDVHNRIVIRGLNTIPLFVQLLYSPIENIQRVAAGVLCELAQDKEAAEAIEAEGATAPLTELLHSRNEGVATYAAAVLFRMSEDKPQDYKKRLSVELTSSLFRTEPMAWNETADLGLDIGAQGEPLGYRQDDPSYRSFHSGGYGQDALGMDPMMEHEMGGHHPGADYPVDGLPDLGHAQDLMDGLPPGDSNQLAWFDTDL
Test: AlphaScreen competitive inhibition assay of the β-catenin/BCL9 PPI
Assay type: binding
Settings: Example 2 compounds; experiment 2; mean ± SD, triplicate; Ki derived from IC50 (Nikolovska-Coleska method); read-out: Ki (μM ± SD) experiment 2
Where a name gives a salt, the structure may show the parent alone.
measurement_name: Ki (µM)
Report the figure in µM without appending any unit label.

Solved cases below.
{"molecule": "NCCC(=O)NCc1cc(F)cc(OC2CCN(C(=O)c3ccc(O[C@H]4CCNC4)c(C4CCCCC4)c3)CC2)c1 [Compound 7, dihydrochloride]", "assayed_target": "β-catenin/BCL9 PPI (Homo sapiens)", "scale_unit": "µM", "Ki": 125}
{"molecule": "O=C(c1ccc(O[C@H]2CCNC2)c(C2CCCCC2)c1)N1CCC(Oc2cc(F)cc(N3CCNCC3)c2)CC1 [Compound 1, dihydrochloride]", "assayed_target": "β-catenin/BCL9 PPI (Homo sapiens)", "scale_unit": "µM", "Ki": 25.4}
{"molecule": "CC(C)(CN)C(=O)NCc1cc(F)cc(OC2CCN(C(=O)c3ccc(O[C@H]4CCNC4)c(C4CCCCC4)c3)CC2)c1 [Compound 8, dihydrochloride]", "assayed_target": "β-catenin/BCL9 PPI (Homo sapiens)", "scale_unit": "µM", "Ki": 162}
{"molecule": "NCCCC(=O)Nc1cc(F)cc(OC2CCN(C(=O)c3ccc(OC4CCNC4)c(C4CCCCC4)c3)CC2)c1 (stereo not shown) [Compound 6, dihydrochloride]", "assayed_target": "β-catenin/BCL9 PPI (Homo sapiens)", "scale_unit": "µM", "Ki": 24.2}
{"molecule": "NCCC(=O)Nc1cc(F)cc(OC2CCN(C(=O)c3ccc(OC4CCNC4)c(C4CCCCC4)c3)CC2)c1 (stereo not shown) [Compound 5, dihydrochloride]", "assayed_target": "β-catenin/BCL9 PPI (Homo sapiens)", "scale_unit": "µM", "Ki": 25.9}

The recorded Ki for entry NCc1cn(Cc2cc(F)cc(OC3CCN(C(=O)c4ccc(O[C@H]5CCNC5)c(C5CCCCC5)c4)CC3)c2)nn1 [Compound 3, dihydrochloride] equals 124
